Test: Pharmacokinetic study in rats after oral administration of R-FF or H-FF extract (UHPLC-MS/MS of serum)
Assay type: in vivo, SD rats
Details: male, SD, rat, serum, po, 140 g/kg, oral R-FF extract 140 g/kg, mean ± SD, n = 6, read-out: MRT0–t
measured-quantity: MRT last (h)

compound	unit-symbol	MRT last
O=C(O)/C=C/c1ccc(O)c(O)c1 [Caffeic acid, caffeic acid]	h	14.3
O=C(C=Cc1ccc(O)c(O)c1)OC1CC(O)(C(=O)O)CC(O)C1O (stereo not shown) [Neochlorogenic acid, neochlorogenic acid]	h	12.5
O=C(/C=C/c1ccc(O)c(O)c1)O[C@H]1[C@H](O)C[C@](O)(C(=O)O)C[C@H]1O [Cryptochlorogenic acid, cryptochlorogenic acid]	h	11.2
C[C@@H]1O[C@@H](OC[C@H]2O[C@@H](Oc3c(-c4ccc(O)c(O)c4)oc4cc(O)cc(O)c4c3=O)[C@H](O)[C@@H](O)[C@@H]2O)[C@H](O)[C@H](O)[C@H]1O [Rutin, rutin]	h	18.9

(1) COc1cc(/C=C/C(=O)O)ccc1O [Ferulic acid, ferulic acid]
(2) O=C(C=Cc1ccc(O)c(O)c1)OC1CC(O)(C(=O)O)CC(O)C1OC(=O)C=Cc1ccc(O)c(O)c1 (stereo not shown) [Isochlorogenic acid B, isochlorogenic acid B]
Exam item: Response body: label of entry with the larger MRT last; valid values 1 , 2 . Identify your pick by its label.
Marked response: 2

###

Experiment: Pharmacokinetic study in rats after oral administration of R-FF or H-FF extract (UHPLC-MS/MS of serum)
Type: in vivo, SD rats
Settings: male, SD, rat, serum, po, 140 g/kg, oral R-FF extract 140 g/kg, mean ± SD, n = 6
measured-quantity: AUC(0-t) (µg·h/mL)

compound	AUC(0-t), µg·h/mL
O=C(C=Cc1ccc(O)c(O)c1)OC1CC(O)(C(=O)O)CC(O)C1O (stereo not shown)	56

(I) O=C(/C=C/c1ccc(O)c(O)c1)O[C@@H]1C[C@](O)(C(=O)O)C[C@@H](O)[C@H]1O
(II) COc1cc(/C=C/C(=O)O)ccc1O
(III) O=C(O)/C=C/c1ccc(O)c(O)c1
Exam item: Reorder: AUC(0-t), max to min. Write the labels in rank order as requested.
Marked response: I, III, II

###

Assay: Pharmacokinetic study in rats after oral administration of R-FF or H-FF extract (UHPLC-MS/MS of serum)
Assay type: in vivo, SD rats
Settings: male, SD, rat, serum, po, 140 g/kg, oral H-FF extract 140 g/kg, mean ± SD, n = 6
measured-quantity: Cmax (ng/mL)

(a) O=C(O)/C=C/c1ccc(O)c(O)c1
(b) O=C(/C=C/c1ccc(O)c(O)c1)O[C@H]1[C@H](O)C[C@](O)(C(=O)O)C[C@H]1O
Exam item: Response body: label of entry with the larger Cmax; valid values a , b . Identify your pick by its label.
Marked response: b
(b: 97300 ng/mL, a: 4550 ng/mL)

(I) O=C(C=Cc1ccc(O)c(O)c1)OC1CC(O)(C(=O)O)CC(O)C1O (stereo not shown)
(II) O=C(/C=C/c1ccc(O)c(O)c1)O[C@@H]1C[C@](O)(C(=O)O)C[C@@H](O)[C@H]1O
Exam item: I'm curious whether I or II has the smaller Cmax number. Which is it? Identify your pick by its label.
Marked response: I

(A) COc1cc(/C=C/C(=O)O)ccc1O
(B) O=C(C=Cc1ccc(O)c(O)c1)OC1CC(O)(C(=O)O)CC(O)C1OC(=O)C=Cc1ccc(O)c(O)c1 (stereo not shown)
Exam item: I'm curious whether A or B has the smaller Cmax number. Which is it? Identify your pick by its label.
Marked response: A

###

Test: Pharmacokinetic study in rats after oral administration of R-FF or H-FF extract (UHPLC-MS/MS of serum)
Format: in vivo, SD rats
Conditions: male, SD, rat, serum, po, 140 g/kg, oral R-FF extract 140 g/kg, mean ± SD, n = 6
measured-quantity: AUC(0-inf) (µg·h/mL)

molecule	measured-result
C[C@@H]1O[C@@H](OC[C@H]2O[C@@H](Oc3c(-c4ccc(O)c(O)c4)oc4cc(O)cc(O)c4c3=O)[C@H](O)[C@@H](O)[C@@H]2O)[C@H](O)[C@H](O)[C@H]1O	211
O=C(/C=C/c1ccc(O)c(O)c1)O[C@H]1[C@H](O)C[C@](O)(C(=O)O)C[C@H]1O	242
O=C(C=Cc1ccc(O)c(O)c1)OC1CC(O)(C(=O)O)CC(O)C1OC(=O)C=Cc1ccc(O)c(O)c1 (stereo not shown)	201

(a) COc1cc(/C=C/C(=O)O)ccc1O
(b) O=C(C=Cc1ccc(O)c(O)c1)OC1CC(O)(C(=O)O)CC(O)C1O (stereo not shown)
(c) O=C(/C=C/c1ccc(O)c(O)c1)O[C@@H]1C[C@](O)(C(=O)O)C[C@@H](O)[C@H]1O
(d) O=C(O)/C=C/c1ccc(O)c(O)c1
Exam item: Reorder: AUC(0-inf), max to min. Write the labels in rank order as requested.
Marked response: c, b, d, a
(c: 236 µg·h/mL, b: 87 µg·h/mL, d: 35.2 µg·h/mL, a: 2.14 µg·h/mL)

###

Experiment: Pharmacokinetic study in rats after oral administration of R-FF or H-FF extract (UHPLC-MS/MS of serum)
Assay type: in vivo, SD rats
Conditions: male, SD, rat, serum, po, 140 g/kg, oral H-FF extract 140 g/kg, mean ± SD, n = 6
measured-quantity: half-life (h)

compound	measured-quantity	measured-result
O=C(C=Cc1ccc(O)c(O)c1)OC1CC(O)(C(=O)O)CC(O)C1OC(=O)C=Cc1ccc(O)c(O)c1 (stereo not shown)	half-life	16.8
O=C(C=Cc1ccc(O)c(O)c1)OC1CC(O)(C(=O)O)CC(O)C1O (stereo not shown)	half-life	14.7
O=C(/C=C/c1ccc(O)c(O)c1)O[C@H]1[C@H](O)C[C@](O)(C(=O)O)C[C@H]1O	half-life	17.6
O=C(/C=C/c1ccc(O)c(O)c1)O[C@@H]1C[C@](O)(C(=O)O)C[C@@H](O)[C@H]1O	half-life	32.9
C[C@@H]1O[C@@H](OC[C@H]2O[C@@H](Oc3c(-c4ccc(O)c(O)c4)oc4cc(O)cc(O)c4c3=O)[C@H](O)[C@@H](O)[C@@H]2O)[C@H](O)[C@H](O)[C@H]1O	half-life	14.3

(I) COc1cc(/C=C/C(=O)O)ccc1O
(II) O=C(O)/C=C/c1ccc(O)c(O)c1
Exam item: I'm curious whether I or II has the smaller half-life number. Which is it? Identify your pick by its label.
Marked response: I

###

Test: Pharmacokinetic study in rats after oral administration of R-FF or H-FF extract (UHPLC-MS/MS of serum)
Assay type: in vivo, SD rats
Details: male, SD, rat, serum, po, 140 g/kg, oral R-FF extract 140 g/kg, mean ± SD, n = 6
measured-quantity: half-life (h)

molecule	half-life / h
C[C@@H]1O[C@@H](OC[C@H]2O[C@@H](Oc3c(-c4ccc(O)c(O)c4)oc4cc(O)cc(O)c4c3=O)[C@H](O)[C@@H](O)[C@@H]2O)[C@H](O)[C@H](O)[C@H]1O	30.7
O=C(/C=C/c1ccc(O)c(O)c1)O[C@H]1[C@H](O)C[C@](O)(C(=O)O)C[C@H]1O	21.9
O=C(/C=C/c1ccc(O)c(O)c1)O[C@@H]1C[C@](O)(C(=O)O)C[C@@H](O)[C@H]1O	33.4

(a) O=C(O)/C=C/c1ccc(O)c(O)c1
(b) COc1cc(/C=C/C(=O)O)ccc1O
Exam item: I'm curious whether a or b has the smaller half-life number. Which is it? Identify your pick by its label.
Marked response: b
(b: 5.07 h, a: 32.3 h)

###

Test: Pharmacokinetic study in rats after oral administration of R-FF or H-FF extract (UHPLC-MS/MS of serum)
Format: in vivo, SD rats
Settings: male, SD, rat, serum, po, 140 g/kg, oral R-FF extract 140 g/kg, mean ± SD, n = 6
measured-quantity: AUC(0-t) (µg·h/mL)

compound	measured-result
O=C(C=Cc1ccc(O)c(O)c1)OC1CC(O)(C(=O)O)CC(O)C1OC(=O)C=Cc1ccc(O)c(O)c1 (stereo not drawn) [Isochlorogenic acid B, isochlorogenic acid B]	194
O=C(/C=C/c1ccc(O)c(O)c1)O[C@H]1[C@H](O)C[C@](O)(C(=O)O)C[C@H]1O [Cryptochlorogenic acid, cryptochlorogenic acid]	170
C[C@@H]1O[C@@H](OC[C@H]2O[C@@H](Oc3c(-c4ccc(O)c(O)c4)oc4cc(O)cc(O)c4c3=O)[C@H](O)[C@@H](O)[C@@H]2O)[C@H](O)[C@H](O)[C@H]1O [Rutin, rutin]	100
